Exercise: state measured pIC50 for each of the compounds provided.
Target: Nonstructural protein 3 (Zika virus, UniProt A0A024AXB9)
Sequence (A0A024AXB9 whole entry): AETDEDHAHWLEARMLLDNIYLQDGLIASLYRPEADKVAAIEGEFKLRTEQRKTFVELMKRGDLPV
Assay: Functional biochemical assay to identify treatments for viral infectious disease that targets Zika NS2B-NS3 protease. Utilizing a direct enzyme activity measurement method, reading the fluorescence intensity is used to characterize the relative potency of inhibitors as IC50.
Parameters: species or system PRVABC59
pIC50: −log10 of the molar value.

Previously resolved entries follow.
| Smiles notation | Result type | Measured result |
| --- | --- | --- |
| NCc1cccc(NC(=O)[C@H](NC(=O)OCc2ccccc2)c2cccc(C3=CCCOC3)c2)c1 | pIC50 | 4.03 |
| CCn1c(=O)c(N2CC[C@@]23CCN(C)C3)nc2ccccc21 | pIC50 | < 4.00 |
| O=C(Nc1cc([C@H]2CCOC2)ccn1)c1cc(F)cc2[nH]ccc12 | pIC50 | < 4.60 |
| O=C(O)CCCc1cccc(NC(=O)c2cc(Cl)cc(NC(=O)OCc3ccccc3)c2)c1 | pIC50 | 4.07 |
| Cc1cc(CN(C)C)cc(NC(=O)[C@H](NC(=O)OCc2ccccc2)c2ccc(OCc3ccccc3)cc2)c1 | pIC50 | < 4.00 |

For every listed record, write down its pIC50.
1. CS(=O)(=O)Nc1cccc(NC(=O)c2cc(Cl)cc(NC(=O)OCc3ccccc3)c2)c1
2. Brc1cc(CNc2ccc3c(c2)CNC3)c2cc[nH]c2c1
3. N#Cc1ccc2[nH]cc(CN3CCC(c4cscn4)CC3)c2c1
4. NCc1cccc(NC(=O)c2cc(Cl)ccc2OCC(F)(F)F)c1
5. NCc1cccc(NC(=O)[C@H](NC(=O)OCc2ccccc2)C2CCN(Cc3ccccc3)CC2)c1
6. NCc1cccc(NC(=O)[C@@H]2Cc3ccc(OCc4ccccc4)cc3CN2C(=O)OCc2ccccc2)c1

1: < 4.00; 2: 5.36; 3: 4.75; 4: 4.26; 5: < 4.00; 6: 4.66
